Experiment: Cyto-toxicity assay (MTT) in MT2 cells without virus
Assay type: cell-based
Conditions: human
Catalogue of viability at 100 nM values

{"smiles text": "C=C(C)[C@@H]1CC[C@]2(C(=O)N[C@@H]3C[C@H](c4nnc(C)o4)C3(C)C)CC[C@]3(C)[C@H](CC[C@@H]4[C@@]5(C)CC[C@H](OC(=O)[C@H]6C[C@@H](C(=O)O)C6(C)C)C(C)(C)[C@@H]5CC[C@]43C)[C@@H]12", "output unit": "%", "viability at 100 nM": 94}
{"smiles text": "CCN1CCN(C(=O)[C@]23CC[C@@H](C4(C)CC4)[C@@H]2[C@H]2CC[C@@H]4[C@@]5(C)CC[C@H](OC(=O)CC(C)(C)C(=O)O)C(C)(C)[C@@H]5CC[C@@]4(C)[C@]2(C)CC3)CC1", "output unit": "%", "viability at 100 nM": 100}
{"smiles text": "[2H]C([2H])([2H])C(CC(=O)O[C@H]1CC[C@]2(C)[C@H]3CC[C@@H]4[C@H]5[C@H](C6(C)CC6)CC[C@]5(C(=O)N5CCN(CC)CC5)CC[C@@]4(C)[C@]3(C)CC[C@H]2C1(C)C)(C(=O)O)C([2H])([2H])[2H]", "output unit": "%", "viability at 100 nM": 83}
{"smiles text": "C=C(C)[C@@H]1CC[C@]2(C(=O)N3CCCCC3)CC[C@]3(C)[C@H](CC[C@@H]4[C@@]5(C)CC[C@H](OC(=O)[C@H]6[C@@H](CC(=O)O)C6(C)C)C(C)(C)[C@@H]5CC[C@]43C)[C@@H]12", "output unit": "%", "viability at 100 nM": 96}
{"smiles text": "CC(C)(CC(=O)O[C@H]1CC[C@]2(C)[C@H]3CC[C@@H]4[C@H]5[C@H](C6(C)CC6)CC[C@]5(C(=O)N5CCC(C#N)(c6ccccc6)CC5)CC[C@@]4(C)[C@]3(C)CC[C@H]2C1(C)C)C(=O)O", "output unit": "%", "viability at 100 nM": 83}
{"smiles text": "[2H]C([2H])([2H])C(N1CCN(C(=O)[C@H]2C[C@@H](NC(=O)[C@]34CC[C@@H](C(=C)C)[C@@H]3[C@H]3CC[C@@H]5[C@@]6(C)CC[C@H](OC(=O)CC(C)(C)C(=O)O)C(C)(C)[C@@H]6CC[C@@]5(C)[C@]3(C)CC4)C2(C)C)CC1)C([2H])([2H])[2H]", "output unit": "%", "viability at 100 nM": 90}
{"smiles text": "Cc1nnc([C@H]2C[C@@H](NC(=O)[C@]34CC[C@@H](C5(C)CC5)[C@@H]3[C@H]3CC[C@@H]5[C@@]6(C)CC[C@H](OC(=O)[C@H]7C[C@@H](C(=O)O)C7(C)C)C(C)(C)[C@@H]6CC[C@@]5(C)[C@]3(C)CC4)C2(C)C)o1", "output unit": "%", "viability at 100 nM": 77}
{"smiles text": "C=C(C)[C@@H]1CC[C@]2(c3nnc(-c4cccnc4)o3)CC[C@]3(C)[C@H](CC[C@@H]4[C@@]5(C)CC[C@H](OC(=O)[C@H]6[C@@H](CC(=O)O)C6(C)C)C(C)(C)[C@@H]5CC[C@]43C)[C@@H]12", "output unit": "%", "viability at 100 nM": 94}
